System: Fibroblast
protocol-text: Multiplex assay against human fibroblast
Type: toxicity, cell-based
assay-context: 48 h, 10 µM, compound concentration 10 uM, replicate 2
Consider the cut-off 70%. If the recorded Population Tubulin-Different-Phenotype (%) is strictly smaller, the label is class 1; if not, the label is class 0.

# compound, class-name
records = [
    ("CNc1oc(-c2cccc3ccccc23)nc1C#N", "class 1"),
    ("CC(C)N1CCC(C)(C)c2cc(C#Cc3ccc(C(=O)O)cc3)ccc21", "class 1"),
    ("Cc1nc(Cc2cccc(C(F)(F)F)c2)sc1-c1ccc(C(N)=O)nc1 [TP-024n]", "class 1"),
    ("Cl.Cl.Nc1ncnc2c1c(-c1cccc(OCc3ccccc3)c1)cn2[C@H]1C[C@@H](CN2CCC2)C1", "class 1"),
    ("CCCn1c(=O)c2[nH]c(C34CC5CC(CC3C5)C4)nc2n(CCC)c1=O", "class 0"),
]

Input line: Problem: For the compound CCn1c(-c2nonc2N)nc2cnc(Oc3cccc(NC(=O)c4ccc(OCCN5CCOCC5)cc4)c3)cc21 [GSK-269962A] , is Population Tubulin-Different-Phenotype (%) under 70%?
Output line: class 0

Input line: Problem: For the compound "C1=N/C2=N/c3ccc(OCCN4CCCC4)c(c3)COC/C=C\COCc3cccc(c3)C(=C1)N2" , is Population Tubulin-Different-Phenotype (%) under 70%?
Output line: class 0

Input line: Problem: For the compound "COc1cc2c(NC3CCN(C(C)C)CC3)nc(N3CCC(F)(F)CC3)nc2cc1OCCCN1CCCC1" , is Population Tubulin-Different-Phenotype (%) under 70%?
Output line: class 1

Input line: Problem: For the compound "COc1cc(N2CCC(N(C)C)CC2)ccc1Nc1ncc(Cl)c(Nc2ccccc2P(C)(C)=O)n1" , is Population Tubulin-Different-Phenotype (%) under 70%?
Output line: class 1

Input line: Problem: For the compound "O=C(O)c1ccc2cc(-c3ccc(O)c(C45CC6CC(CC(C6)C4)C5)c3)ccc2c1" , is Population Tubulin-Different-Phenotype (%) under 70%?
Output line: class 1

Input line: Problem: For the compound "Cc1cc2c(cc1N1C(=O)c3cccc4c(CCCO)ccc(c34)C1=O)n(C)c(=O)n2C" , is Population Tubulin-Different-Phenotype (%) under 70%?
Output line: class 0

Input line: Problem: For the compound "CCc1cc2c(cc1CC)CC(NC[C@H](O)c1ccc(O)c3[nH]c(=O)ccc13)C2" , is Population Tubulin-Different-Phenotype (%) under 70%?
Output line: class 1

Input line: Problem: For the compound "CC(=O)c1cc(-c2cc(C(=O)NC3CC3)ccc2C)c2ncccn12" , is Population Tubulin-Different-Phenotype (%) under 70%?
Output line: class 1

Input line: Problem: For the compound "Nc1ccc(C(=O)Nc2cccc(-c3nc(N4CCOCC4)c4oc5ncccc5c4n3)c2)cn1" , is Population Tubulin-Different-Phenotype (%) under 70%?
Output line: class 0

Input line: Problem: For the compound CCC(=O)O[C@]1(C(=O)SCF)[C@H](C)C[C@H]2[C@@H]3C[C@H](F)C4=CC(=O)C=C[C@]4(C)[C@@]3(F)[C@@H](O)C[C@@]21C [FLUTICASONE PROPIONATE] , is Population Tubulin-Different-Phenotype (%) under 70%?
Output line: class 1

Input line: Problem: For the compound "Nc1nc2c(c(N3CCNCC3)n1)CCC1=C2[C@@H]2CCCC[C@@H]2O1" , is Population Tubulin-Different-Phenotype (%) under 70%?
Output line: class 1
